Test system: A549
Experiment: hypoxic/normoxic cytotoxicity, A549
Format: cell-based
Conditions: Homo sapiens, A549, A549, Air, 3 h exposure, survival at 72 h, n=3; conjugate as TPZ groups
Outcome Measure: pIC50
API: returns pIC50 as number; meaning -log10 of concentration in mol/L.

What value of measured pIC50 is listed for Nc1n[n+]([O-])c2ccccc2[n+]1[O-] ? 3.23

Next record, please: O=C(NCCc1ccc(O)c(O)c1)Nc1n[n+]([O-])c2ccccc2[n+]1[O-] 4.08
